# Assayed Target: T1, Full length recombinant HBcAg (rHBcAg) encompassing residues 1-183 (hepatitis B virus, UniProt P03146 1-183)
# T1 construct: range 1-183; also called hepatitis B virus core antigen
# T1 sequence (P03146 whole entry, the tested form may be a part): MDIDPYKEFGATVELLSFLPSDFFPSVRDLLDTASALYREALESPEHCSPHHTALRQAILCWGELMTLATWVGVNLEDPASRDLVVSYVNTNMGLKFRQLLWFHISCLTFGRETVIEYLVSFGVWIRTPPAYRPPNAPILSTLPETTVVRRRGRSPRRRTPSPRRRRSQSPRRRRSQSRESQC
# Assay Name: EIA, support-bound peptide, HBcAg 2 ug/well
Mark each entry true if its OD at 405 nm sits below 0.4 OD, and false for all others.

[[record]]
binder = "VDKSSSTAYMQLNSLTSEDS (also called Peptide # 31) [VDKSSSTAYMQLNSLTSEDS (SEQ. ID. No. 34)]"
cat = "true"

[[record]]
binder = "KRADAAPAVSIFPPSSKLG (also called Peptide # 23) [KRADAAPAVSIFPPSSKLG (SEQ. ID. No. 26)]"
cat = "false"

[[record]]
binder = "VKLQQSGTEVVKPGASVKLS (also called Peptide # 1) [VKLQQSGTEVVKPGASVKLS (SEQ. ID. No. 4)]"
cat = "true"

[[record]]
binder = "IQLQQSGAELVKPGASVKIS (also called Peptide # 24) [IQLQQSGAELVKPGASVKIS (SEQ. ID. No. 27)]"
cat = "true"

[[record]]
binder = "LIKYASNLESGVPARFSGSG [LIKYASNLESGVPARFSGSG (SEQ. ID. No. 20)]"
cat = "true"

[[record]]
binder = "AVYFCARGDYDYYRRYFDLW (also called Peptide # 10) [AVYFCARGDYDYYRRYFDLW (SEQ. ID. No. 13)]"
cat = "false"

[[record]]
binder = "SGTDFTLNIHPVEEEDTATY [SGTDFTLNIHPVEEEDTATY (SEQ. ID. No. 22)]"
cat = "false"


Each recorded value in this set is attributed to patent US20020058247A1.
